Recorded values, source patent US20180258158A1.

Target: T1, rat serum albumin (rat SA), full length (rat, UniProt P02770 25-608)
T1 construct: mature; Immobilized on CM5 chip (SPR); also called RSA
T1 sequence (P02770 25-608): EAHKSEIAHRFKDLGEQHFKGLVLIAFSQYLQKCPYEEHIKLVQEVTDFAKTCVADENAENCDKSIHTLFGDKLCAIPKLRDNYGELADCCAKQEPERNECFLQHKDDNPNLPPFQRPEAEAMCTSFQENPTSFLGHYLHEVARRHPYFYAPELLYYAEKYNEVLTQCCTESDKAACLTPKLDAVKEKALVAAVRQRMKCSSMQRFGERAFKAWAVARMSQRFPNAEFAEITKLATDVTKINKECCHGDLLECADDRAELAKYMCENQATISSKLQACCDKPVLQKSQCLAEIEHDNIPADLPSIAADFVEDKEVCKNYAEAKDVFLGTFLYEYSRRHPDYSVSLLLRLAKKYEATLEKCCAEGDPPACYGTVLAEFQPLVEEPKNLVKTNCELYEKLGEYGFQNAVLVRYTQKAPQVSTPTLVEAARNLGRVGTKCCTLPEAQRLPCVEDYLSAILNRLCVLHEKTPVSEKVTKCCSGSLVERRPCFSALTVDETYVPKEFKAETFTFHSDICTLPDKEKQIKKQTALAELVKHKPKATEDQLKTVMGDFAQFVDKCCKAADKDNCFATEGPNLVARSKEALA
Assay: SPR kinetics, immobilized albumin, 1:1 fit, 37 C
Protocol: The SPR was conducted as follows. Full length human, mouse, rat and cynomolgus monkey serum albumin were immobilized on a Biacore T series CM5 chip at 15 ug/mL in 10 mM acetate buffer (pH 5.0) buffer using standard NHS/EDC coupling, to a surface density of approximately 1000-1100 RU. […]
parameter: Kd (nM)
Output spec: scalar in nM, unitless text.

Consider the reported Kd for these binders:
• ADX_7016_G01 (Y44S) (designed binder, Full His6-tagged entry; also called 6727_G02) MGVSDVPRDLEVVAATPTSLLISWDAPAVTVRYYRITYGREVQKYSDLGPLYISQEFTVPGSKSTATISGLKPGVDYTITVYAVTGSGESPASSKPISINYRTEIDKPSQHHHHHH = 104
• ADX_7016_C03 (Y44Q) (designed binder, Full His6-tagged entry; also called 6727_B03) MGVSDVPRDLEVVAATPTSLLISWDAPAVTVRYYRITYGREVQKYSDLGPLYIQQEFTVPGSKSTATISGLKPGVDYTITVYAVTGSGESPASSKPISINYRTEIDKPSQHHHHHH = 1340
• ADX_7016_A01 (parent PKE2 Adnectin) (designed binder, N-terminal Met may be cleaved; also called 2629_E06; ADX_2629_E06) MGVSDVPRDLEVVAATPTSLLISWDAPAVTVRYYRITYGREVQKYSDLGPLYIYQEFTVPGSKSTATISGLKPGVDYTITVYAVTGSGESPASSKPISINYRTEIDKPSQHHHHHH = 8

In the following, a different binder is considered.
Entry under test: ADX_7016_E02 (L38T) (designed binder, Full His6-tagged entry; also called 6727_E08) MGVSDVPRDLEVVAATPTSLLISWDAPAVTVRYYRITYGREVQKYSDTGPLYIYQEFTVPGSKSTATISGLKPGVDYTITVYAVTGSGESPASSKPISINYRTEIDKPSQHHHHHH . Its Kd was 1130
